Source of measurements: patent US6673938B1

Known Pre-emergence action, Panicum of a selection of compounds
Tested on: Monocotyledonous and dicotyledonous test plants
ASSAY_OVERVIEW: Herbicidal action before emergence of the plants (pre-emergence action)
Assay type: in vivo
CONDITION_SUMMARY: Panicum; 250 g/ha; evaluated after 3 weeks; nine-step scale

Sample records with Pre-emergence action, Panicum:
Entry CCOC(=O)C1C(O)=C(C(=O)c2ccc(C(F)(F)F)nc2C)C(=O)CC1C (centres unmarked) has what Pre-emergence action, Panicum?
2

Also, COCc1nc(C(F)(F)F)ccc1C(=O)C1=C(O)CCCC1=O please.
2

Could you do the same for COCc1nc(C(F)(F)F)ccc1C(=O)C1=C(O)C(C)(C)OCC1=O , please?
2

Would you mind doing COc1nc(C(F)(F)F)ccc1C(=O)C1=C(O)C(C)(C)CCC1=O as well?
2

# iterate: Cc1c(C(=O)C2=C(Cl)C(C)(C)C(=O)C(C)(C)C2=O)ccc(C(F)(F)F)[n+]1[O-]
2

***
// returns reported Pre-emergence action, Panicum for input COCc1nc(C(F)(F)F)ccc1C(=O)C1=C(O)C(C)(C)C(C)CC1=O (centres unmarked)
3

Same again, this time with CCOC(=O)OCc1nc(C(F)(F)F)ccc1C(=O)C1=C(O)C(C)(C)C(=O)C(C)(C)C1=O
1

Ok, now COCc1nc(C(F)(F)F)ccc1C(=O)C1=C(O)CC(C)(C)CC1=O
2

* * *

System: Monocotyledonous and dicotyledonous test plants
ASSAY_OVERVIEW: Herbicidal action before emergence of the plants (pre-emergence action)
Assay type: in vivo
CONDITION_SUMMARY: Ipomoea; 2000 g/ha; evaluated after 3 weeks; nine-step scale
READOUT_TYPE: pre-emergence action, Ipomoea
Give the value as a plain number.

Give the reported pre-emergence action, Ipomoea for CSC1(C)CC(C)(C)C(=O)C(C(=O)c2ccc(C(F)(F)F)nc2C)=C1O (centres unmarked) [Compound A2-B95] (system: Monocotyledonous and dicotyledonous test plants).
4

Next:
Identify the measured pre-emergence action, Ipomoea of CCN(CC)CC.Cc1nc(C(F)(F)F)ccc1C(=O)C1=C(O)CCCC1=O [Compound A2-B1100] for Monocotyledonous and dicotyledonous test plants.
3

Follow-up item: CCC1(C)CC(C)C(=O)C(C(=O)c2ccc(C(F)(F)F)nc2C)=C1O (centres unmarked) [Compound A2-B69]
4

Next entry: Cc1nc(C(F)(F)Cl)ccc1C(=O)C1=C(O)CCCC1=O [Compound A94-B1]
2

Moving on to the next compound: CCOC(=O)C1(C)CCC(=O)C(C(=O)c2ccc(C(F)(F)F)nc2C)=C1O (centres unmarked) [Compound A2-B35]
4

Also, Cc1nc(C(F)(F)F)ccc1C(=O)C1=C(O)CC2CCCC2C1=O (centres unmarked) [Compound A2-D36] please.
2

Same again, this time with Cc1nc(C(F)(F)F)ccc1C(=O)C1=C(O)CCCC1=O [Compound A2-B1]
2

And then Cc1nc(C(F)(F)F)ccc1C(=O)C1=C(O)C(C)CC2(CCC2)C1=O (centres unmarked) [Compound A2-C152] , what is it?
1

Next compound: Cc1nc(C(F)(F)C(F)(F)C(F)(F)F)ccc1C(=O)C1=C(O)C(C)(C)CCC1=O [Compound A64-B24]
4

Thanks! And Cc1nc(C(F)(F)F)ccc1C(=O)C1=C(O)CCC2(CCC2)C1=O [Compound A2-C146] ?
2

* * *

Test system: Monocotyledonous and dicotyledonous test plants
ASSAY_OVERVIEW: Herbicidal action before emergence of the plants (pre-emergence action)
Format: in vivo
CONDITION_SUMMARY: Sinapis; 2000 g/ha; evaluated after 3 weeks; nine-step scale
READOUT_TYPE: pre-emergence action, Sinapis
Enter a number only.

Previously resolved entries follow.
# lookup: pre-emergence action, Sinapis of CCC1(C)CCC(=O)C(C(=O)c2ccc(C(F)(F)F)nc2C)=C1O (centres unmarked) [Compound A2-B25]
2

// next record CCC1CC(C)(C)C(=O)C(C(=O)c2ccc(C(F)(F)F)nc2C)=C1O (centres unmarked) [Compound A2-B1089]
2

Next compound up: COC1CCC(=O)C(C(=O)c2ccc(C(F)(F)F)nc2C)=C1O (centres unmarked) [Compound A2-B1068]
2

What about Cc1nc(C(F)(F)F)ccc1C(=O)C1=C(O)C(C)(C)C(=O)C(C)(C)C1=O [Compound A2-B354] ?
1

Proceed to Cc1nc(C(F)(F)F)ccc1C(=O)C1=C(O)C(C)C(C)(C)CC1=O (centres unmarked) [Compound A2-B1095]
2

Next:
Field request: pre-emergence action, Sinapis | item: Cc1nc(C(F)(F)F)ccc1C(=O)C1=C(O)CC(C)(C)CC1=O [Compound A2-B1063]
2

Item: Cc1nc(C(F)(F)F)ccc1C(=O)C1=C(O)C(C)(S(C)(=O)=O)CC(C)C1=O (centres unmarked) [Compound A2-B75]
2

Now the same for Cc1nc(C(F)(F)F)ccc1C(=O)C1=C(O)C(C)CCC1=O (centres unmarked) [Compound A2-B2]
1

Would you mind doing Cc1nc(C(F)(F)F)ccc1C(=O)C1=C(O)C(C)(C)CCC1=O [Compound A2-B24] as well?
2

Item: Cc1cc(C(=O)C2=C(O)C(C)(C)CCC2=O)c(C)nc1C(F)(F)F [Compound A184-B24]
2

Lookup Cc1nc(C(F)(F)F)ccc1C(=O)C1=C(O)CC(C(C)C)CC1=O (centres unmarked) [Compound A2-B1061]
2

Please answer likewise for Cc1nc(C(F)(F)F)ccc1C(=O)C1=C(O)CC2CCCC2C1=O (centres unmarked) [Compound A2-D36]
2

Subsequent entry: Cc1nc(C(F)(F)F)ccc1C(=O)C1=C(O)C(C(C)C)CC(C)C1=O (centres unmarked) [Compound A2-B49]
2

Repeat for the following compound: Cc1nc(C(F)(F)F)ccc1C(=O)C1=C(O)C(C)(C)OC(C)(C)C1=O [Compound A2-B618]
2

Try this compound next: COC(=O)C1C(O)=C(C(=O)c2ccc(C(F)(F)F)nc2C)C(=O)CC1C (centres unmarked) [Compound A2-B144]
2

What would you report for Cc1nc(C(F)(F)F)ccc1C(=O)C1=C(O)C(C)CC(C)C1=O (stereo not drawn) [A2-B46 (trans)] ?
2

Can you handle Cc1nc(C(F)(F)F)ccc1C(=O)C1=C(O)C(C)(C)CC(C)(C)C1=O [Compound A2-B90] next?
1

* * *

# Post-emergence action: Panicum (score, nine-step scale) listing for each entry below
Test system: Monocotyledonous and dicotyledonous test plants
ASSAY_OVERVIEW: Post-emergence herbicidal action
Type: in vivo
CONDITION_SUMMARY: Panicum; 250 g/ha; sprayed at 4- to 6-leaf stage; evaluated after approximately 18 days
Number, no unit, nothing else.

Some solved entries appear below for comparison.
Which Post-emergence action: Panicum (score, nine-step scale) is reported for this molecule? COCc1nc(C(F)(F)F)ccc1C(=O)C1=C(O)CCC=C(C)C1=O
4

Quick one: COCc1nc(C(F)(F)F)ccc1C(=O)C1=C(O)C(C)C2CC2C1=O (stereo not drawn)
3

One more molecule: Cc1c(C(=O)C2=C(Cl)C(C)(C)C(=O)C(C)(C)C2=O)ccc(C(F)(F)F)[n+]1[O-]
1

Further cases:
Which Post-emergence action: Panicum (score, nine-step scale) is listed for COCc1nc(C(F)(F)F)ccc1C(=O)C1=C(O)CCCC1=O ?
4

What about this molecule? COCc1nc(C(F)(F)F)ccc1C(=O)C1=C(O)C(C)(C)OCC1=O
2

And the next one, COCc1nc(C(F)(F)F)ccc1C(=O)C1=C(O)CC2CCCC2C1=O (stereo not drawn) ?
3

Another molecule to check: COCc1nc(C(F)(F)F)ccc1C(=O)C1=C(O)C(C)(C)C(C)CC1=O (stereo not drawn)
2

Again, but for CCOC(=O)OCc1nc(C(F)(F)F)ccc1C(=O)C1=C(O)C(C)(C)C(=O)C(C)(C)C1=O
3

Here is the next molecule: CC1=CCCC(O)=C(C(=O)c2ccc(C(F)(F)F)nc2C)C1=O
3

* * *

Reported melting point values for a set of molecules

Which melting point is reported for this molecule? Cc1nc(C(F)(F)F)ccc1C(=O)C1=C(S(=O)(=O)c2ccccc2)CCCC1=O
165 to 167 °C

Do the same for CC1(C)C(=O)C(C(=O)c2ccc(C(F)(F)F)nc2CBr)=C(Cl)C(C)(C)C1=O please
94.5 to 95 °C

Request: Cc1nc(C(F)(F)F)ccc1C(=O)C1=C(Sc2ccccc2)CCCC1=O
124 to 125 °C

Same again, this time with Cc1nc(C(F)(F)F)ccc1C(=O)C1=C(O)C(C)(C)C(=O)C(C)(C)C1=O
139 to 140 °C

For Cc1nc(C(F)(F)F)ccc1C(=O)C1=C(Cl)C(C)(C)C(=O)C(C)(C)C1=O then?
119 °C

Others:
Endpoint output: melting point of Cc1nc(C(F)(F)F)ccc1C(=O)C1=C(O)CCCC1=O . Value?
90 to 92 °C

Can you handle COC(=O)C1(C)CCC(=O)C(C(=O)c2ccc(C(F)(F)Cl)nc2C)=C1O (centres unmarked) next?
108 to 110 °C

Entry to check: Cc1nc(C(F)(F)F)ccc1C(=O)C1=C(O)C(C)(C)CCC1=O
75 to 76 °C
